- measured-target: CDK4 cyclinD1 (Homo sapiens)
- Sequence (P11802 whole entry): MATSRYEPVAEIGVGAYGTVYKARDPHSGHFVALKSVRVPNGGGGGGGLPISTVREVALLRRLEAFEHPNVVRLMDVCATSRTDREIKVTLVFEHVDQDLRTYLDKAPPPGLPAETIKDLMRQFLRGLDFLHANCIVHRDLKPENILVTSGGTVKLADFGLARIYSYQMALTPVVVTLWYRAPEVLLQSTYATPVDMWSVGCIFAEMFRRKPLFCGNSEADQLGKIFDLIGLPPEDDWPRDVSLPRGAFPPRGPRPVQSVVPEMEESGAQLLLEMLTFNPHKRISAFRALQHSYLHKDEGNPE
- Sequence (P24385 whole entry partner): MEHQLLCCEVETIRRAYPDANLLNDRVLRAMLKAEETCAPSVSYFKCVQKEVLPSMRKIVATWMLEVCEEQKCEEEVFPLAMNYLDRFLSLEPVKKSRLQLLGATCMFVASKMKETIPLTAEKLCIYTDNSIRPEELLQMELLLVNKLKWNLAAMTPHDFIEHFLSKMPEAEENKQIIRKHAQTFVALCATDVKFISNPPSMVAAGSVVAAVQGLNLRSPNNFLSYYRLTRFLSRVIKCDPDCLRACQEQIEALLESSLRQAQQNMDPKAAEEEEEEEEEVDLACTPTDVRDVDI
# IC50 annotations
endpoint: IC50

>>> print(df.to_string())
                                    molecule     recorded_value
 0  Cc1nn(-c2ccnc(Nc3ccc(-c4csc5c(=O)cc(N6CCOCC6)oc45)cc3)n2)cc1CN(C)CCO [Compound 59]   1000 to 10000 nM
 1  CN(C)C(=O)c1cc2cnc(Nc3ccc(-c4csc5c(=O)cc(N6CCN(C(=O)OC(C)(C)C)CC6)oc45)cc3)nc2n1C1CCCC1 [Compound 10]           < 500 nM
 2  CN(C)C(=O)c1cc2cnc(Nc3ccc(-c4csc5c(=O)cc(N6CCOCC6)oc45)c(C(=O)NCCN)c3)nc2n1C1CCCC1 [Compound 22]           < 500 nM
 3  Cc1nn(-c2ccnc(Nc3ccc(-c4csc5c(=O)cc(N6CCN(C(=O)OC(C)(C)C)CC6)oc45)cc3)n2)cc1CN1CC(O)C1 [Compound 56]   1000 to 10000 nM
 4  CN(C)C(=O)c1cc2cnc(Nc3ccc(-c4csc5c(=O)cc(N6CCOCC6)oc45)c(C(=O)O)c3)nc2n1C1CCCC1 [Compound 14]  10000 to 45000 nM
 5  CN(C)C(=O)c1cc2cnc(Nc3ccc(-c4csc5c(=O)cc(N6CCNCC6)oc45)cc3)nc2n1C1CCCC1 [Compound 9]           < 500 nM
 6  CN(C)C(=O)c1cc2cnc(Nc3ccc(-c4csc5c(=O)cc(N6CCOCC6)oc45)cc3C(=O)O)nc2n1C1CCCC1 [Compound 13]         > 45000 nM
 7  Cc1nn(-c2ccnc(Nc3ccc(-c4csc5c(=O)cc(N6CCNCC6)oc45)cc3)n2)cc1CN1CCC1 [Compound 55]   1000 to 10000 nM
 8  Cc1nn(-c2ccnc(Nc3ccc(-c4csc5c(=O)cc(N6CCOCC6)oc45)cc3)n2)cc1CN1CCC1 [Compound 54]         > 45000 nM
 9  CC(=O)c1c(C)c2cnc(Nc3ccc(-c4csc5c(=O)cc(N6CCOCC6)oc45)cc3)nc2n(C2CCCC2)c1=O [Compound 25-2]           < 500 nM
10  CN(C)C(=O)c1cc2cnc(Nc3ccc(-c4csc5c(=O)cc(N6CCOCC6)oc45)nc3)nc2n1C1CCCC1 [Compound 7]           < 500 nM
11  CN(C)C(=O)c1cc2cnc(Nc3csc4c(=O)cc(N5CCOCC5)oc34)nc2n1C1CCCC1 [Compound 12]   1000 to 10000 nM
12  Cc1nn(-c2ccnc(Nc3ccc(-c4csc5c(=O)cc(N6CCOCC6)oc45)cc3)n2)cc1CN(C)C [Compound 57]           < 500 nM
13  COC(=O)c1cc(-c2csc3c(=O)cc(N4CCOCC4)oc23)ccc1Nc1ncc2cc(C(=O)N(C)C)n(C3CCCC3)c2n1 [Compound 11]         > 45000 nM

====

- measured-target: PI3K alpha (Homo sapiens)
- Sequence (P42336 whole entry): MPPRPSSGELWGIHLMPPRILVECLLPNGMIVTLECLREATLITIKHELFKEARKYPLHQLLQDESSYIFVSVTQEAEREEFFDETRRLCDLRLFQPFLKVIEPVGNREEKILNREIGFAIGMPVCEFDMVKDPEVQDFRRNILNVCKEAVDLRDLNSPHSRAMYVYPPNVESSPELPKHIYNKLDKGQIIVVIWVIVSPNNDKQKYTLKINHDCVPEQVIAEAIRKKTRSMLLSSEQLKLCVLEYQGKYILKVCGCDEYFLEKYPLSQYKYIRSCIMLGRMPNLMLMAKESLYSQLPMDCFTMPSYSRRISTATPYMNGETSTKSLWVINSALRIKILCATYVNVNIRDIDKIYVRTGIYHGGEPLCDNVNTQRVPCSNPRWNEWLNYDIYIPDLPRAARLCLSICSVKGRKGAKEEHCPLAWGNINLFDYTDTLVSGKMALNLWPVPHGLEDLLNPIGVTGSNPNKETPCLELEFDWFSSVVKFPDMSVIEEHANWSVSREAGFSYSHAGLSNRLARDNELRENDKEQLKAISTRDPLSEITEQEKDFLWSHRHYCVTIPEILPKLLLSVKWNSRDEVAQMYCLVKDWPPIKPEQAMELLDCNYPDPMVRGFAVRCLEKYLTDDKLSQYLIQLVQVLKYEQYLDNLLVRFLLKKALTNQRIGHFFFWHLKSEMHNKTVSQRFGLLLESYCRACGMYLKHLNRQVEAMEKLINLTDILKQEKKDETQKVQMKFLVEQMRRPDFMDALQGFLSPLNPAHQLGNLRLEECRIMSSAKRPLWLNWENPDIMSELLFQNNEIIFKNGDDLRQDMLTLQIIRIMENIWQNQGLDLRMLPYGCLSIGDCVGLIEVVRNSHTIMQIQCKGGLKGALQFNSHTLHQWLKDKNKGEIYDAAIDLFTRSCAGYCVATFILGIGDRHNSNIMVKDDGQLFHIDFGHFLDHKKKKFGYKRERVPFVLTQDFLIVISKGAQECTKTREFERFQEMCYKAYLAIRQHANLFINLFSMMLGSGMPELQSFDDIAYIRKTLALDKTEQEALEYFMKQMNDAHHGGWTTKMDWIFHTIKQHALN
- Sequence (P27986 whole entry partner): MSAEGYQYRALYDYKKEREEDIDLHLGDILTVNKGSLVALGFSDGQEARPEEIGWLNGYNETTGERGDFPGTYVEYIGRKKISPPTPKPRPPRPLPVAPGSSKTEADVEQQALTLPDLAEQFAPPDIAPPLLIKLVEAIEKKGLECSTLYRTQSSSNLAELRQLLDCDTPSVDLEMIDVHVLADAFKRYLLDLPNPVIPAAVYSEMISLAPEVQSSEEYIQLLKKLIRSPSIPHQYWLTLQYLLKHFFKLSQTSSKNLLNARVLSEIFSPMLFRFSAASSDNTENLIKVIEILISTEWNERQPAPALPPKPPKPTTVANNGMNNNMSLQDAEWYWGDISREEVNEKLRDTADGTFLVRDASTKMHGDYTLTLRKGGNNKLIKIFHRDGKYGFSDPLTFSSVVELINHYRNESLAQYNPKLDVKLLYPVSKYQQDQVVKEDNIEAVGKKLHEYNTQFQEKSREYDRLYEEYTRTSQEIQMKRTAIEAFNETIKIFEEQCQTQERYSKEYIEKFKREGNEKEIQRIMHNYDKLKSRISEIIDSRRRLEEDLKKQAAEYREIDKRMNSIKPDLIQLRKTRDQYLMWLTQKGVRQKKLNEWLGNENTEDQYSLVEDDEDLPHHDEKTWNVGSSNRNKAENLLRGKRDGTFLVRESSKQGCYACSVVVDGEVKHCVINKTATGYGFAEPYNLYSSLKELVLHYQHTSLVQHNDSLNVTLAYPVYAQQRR
pIC50: −log10 of the molar value.
In this section, each of the compounds is paired with its reported pIC50.
endpoint: pIC50

                                    compound            measured_target  endpoint  recorded_value
 0  Cc1nc2c(F)cc(-c3nc(Nc4ccc(-c5csc6c(=O)cc(N7CCOCC7)oc56)cc4)ncc3F)cc2n1C(C)C [Compound 25-1]  PI3K alpha (Homo sapiens)     pIC50    4.35 to 5.00
 1  COc1cc(NC(C)=O)cc(-c2csc3c(=O)cc(N4CCOCC4)oc23)c1 [Compound 33]  PI3K alpha (Homo sapiens)     pIC50          > 6.30
 2  C=CC(=O)N1CCOc2ccc(-c3csc4c(=O)cc(N5CCOCC5)oc34)cc21 [Compound 32]  PI3K alpha (Homo sapiens)     pIC50          > 6.30
 3  C=CC(=O)Nc1cc(-c2csc3c(=O)cc(N4CCOCC4)oc23)ccc1OC [Compound 36]  PI3K alpha (Homo sapiens)     pIC50          > 6.30
 4  CN(C)C(=O)c1cc2cnc(Nc3ccc(-c4csc5c(=O)cc(N6CCOCC6)oc45)c(C(=O)O)c3)nc2n1C1CCCC1 [Compound 14]  PI3K alpha (Homo sapiens)     pIC50          > 6.30
 5  O=C(C1=CCCC1)N1CCOc2ccc(-c3csc4c(=O)cc(N5CCOCC5)oc34)cc21 [Compound 40]  PI3K alpha (Homo sapiens)     pIC50          > 6.30
 6  O=c1cc(N2CCNCC2)oc2c(-c3ccc4c(c3)OCCO4)csc12 [Compound 1]  PI3K alpha (Homo sapiens)     pIC50          < 4.35
 7  O=C(NCc1cccnc1)c1cc(-c2csc3c(=O)cc(N4CCNCC4)oc23)cc2c1OCCO2 [Compound 3]  PI3K alpha (Homo sapiens)     pIC50    5.00 to 6.00
 8  COc1ccc(C#Cc2csc3c(=O)cc(N4CCOCC4)oc23)cc1 [Compound 5-2]  PI3K alpha (Homo sapiens)     pIC50          > 6.30
 9  COC(=O)c1cc(-c2csc3c(=O)cc(N4CCOCC4)oc23)ccc1Nc1ncc2cc(C(=O)N(C)C)n(C3CCCC3)c2n1 [Compound 11]  PI3K alpha (Homo sapiens)     pIC50          > 6.30
10  C=CS(=O)(=O)N(C)c1cccc(-c2csc3c(=O)cc(N4CCOCC4)oc23)c1 [Compound 47]  PI3K alpha (Homo sapiens)     pIC50          > 6.30
11  O=c1cc(N2CCOCC2)oc2c(C#Cc3ccsc3)csc12 [Compound 5-1]  PI3K alpha (Homo sapiens)     pIC50          > 6.30
12  CNC(=O)c1cc2cnc(Nc3ccc(-c4csc5c(=O)cc(N6CCOCC6)oc45)cc3)nc2n1C1CCCC1 [Compound 16]  PI3K alpha (Homo sapiens)     pIC50          > 6.30
13  C=CC(=O)N1CCOc2ccc(-c3csc4c(=O)cc(N5CCN(C)CC5)oc34)cc21 [Compound 28]  PI3K alpha (Homo sapiens)     pIC50    4.35 to 5.00
14  CN(C)C(=O)c1cc2cnc(Nc3ccc(-c4csc5c(=O)cc(N6CCOCC6)oc45)nc3)nc2n1C1CCCC1 [Compound 7]  PI3K alpha (Homo sapiens)     pIC50    5.00 to 6.00
15  C=CS(=O)(=O)N(C)c1cc(-c2csc3c(=O)cc(N4CCOCC4)oc23)ccc1OC [Compound 48]  PI3K alpha (Homo sapiens)     pIC50          > 6.30
16  Cc1nn(-c2ccnc(Nc3ccc(-c4csc5c(=O)cc(N6CCOCC6)oc45)cc3)n2)cc1CN1CCC1 [Compound 54]  PI3K alpha (Homo sapiens)     pIC50          > 6.30
17  Cc1nn(-c2ccnc(Nc3ccc(-c4csc5c(=O)cc(N6CCOCC6)oc45)cc3)n2)cc1CN1CC(O)C1 [Compound 52]  PI3K alpha (Homo sapiens)     pIC50    6.00 to 6.30
18  C=CS(=O)(=O)N(c1cccc(-c2csc3c(=O)cc(N4CCOCC4)oc23)c1)S(=O)(=O)C=C [Compound 50]  PI3K alpha (Homo sapiens)     pIC50          > 6.30
19  CN(C)C(=O)c1cc2cnc(Nc3ccc(-c4csc5c(=O)cc(N6CCOCC6)oc45)cc3C(=O)O)nc2n1C1CCCC1 [Compound 13]  PI3K alpha (Homo sapiens)     pIC50          > 6.30
20  C=CC(=O)N1CCOc2ccc(-c3csc4c(=O)cc(N5CCN(C(=O)OC(C)(C)C)CC5)oc34)cc21 [Compound 29]  PI3K alpha (Homo sapiens)     pIC50    4.35 to 5.00
21  Cc1nn(-c2ccnc(Nc3ccc(-c4csc5c(=O)cc(N6CCOCC6)oc45)cc3)n2)cc1CN1CCOCC1 [Compound 58]  PI3K alpha (Homo sapiens)     pIC50    6.00 to 6.30
22  C/C=C(/C)C(=O)N1CCOc2ccc(-c3csc4c(=O)cc(N5CCOCC5)oc34)cc21 [Compound 37]  PI3K alpha (Homo sapiens)     pIC50          > 6.30
23  O=C(O)c1cc2cnc(Nc3ccc(-c4csc5c(=O)cc(N6CCOCC6)oc45)cc3)nc2n1C1CCCC1 [Compound 23]  PI3K alpha (Homo sapiens)     pIC50          > 6.30
24  C/C=C/C(=O)N1CCOc2ccc(-c3csc4c(=O)cc(N5CCOCC5)oc34)cc21 [Compound 39]  PI3K alpha (Homo sapiens)     pIC50          > 6.30
25  Cc1nn(-c2ccnc(Nc3ccc(-c4csc5c(=O)cc(N6CCNCC6)oc45)cc3)n2)cc1CN1CCC1 [Compound 55]  PI3K alpha (Homo sapiens)     pIC50          < 4.35
